# EXPERIMENTAL_TARGET: human GPR72 (Homo sapiens)
# Sequence (Q9NYM4 17-423): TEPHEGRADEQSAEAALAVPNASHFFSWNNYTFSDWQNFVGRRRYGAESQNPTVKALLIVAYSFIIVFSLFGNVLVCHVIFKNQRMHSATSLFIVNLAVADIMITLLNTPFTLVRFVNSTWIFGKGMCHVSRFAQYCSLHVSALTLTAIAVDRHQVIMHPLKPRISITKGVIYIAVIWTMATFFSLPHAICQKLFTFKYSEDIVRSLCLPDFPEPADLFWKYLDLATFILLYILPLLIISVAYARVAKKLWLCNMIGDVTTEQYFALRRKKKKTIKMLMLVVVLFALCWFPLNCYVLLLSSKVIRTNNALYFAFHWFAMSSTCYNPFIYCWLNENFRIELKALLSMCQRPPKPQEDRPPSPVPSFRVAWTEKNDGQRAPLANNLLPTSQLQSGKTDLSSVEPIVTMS
# ASSAY_INFO: aequorin intracellular calcium release assay, CHO-K1 cells expressing human GPR72
# Format: cell-based
# Design: expressed in transfected cells; host or cells: CHO-K1 cells coexpressing mitochondrial apoaequorin and a G alpha subunit (Gα16)
# REPORTED_CONDITIONS: human GPR72 receptor; FIG. 8
MEASUREMENT_NAME: activity on GPR72 (structure-activity relationship)

{"columns": ["COMPOUND", "EXPERIMENTAL_TARGET", "ENDPOINT_RESULT"],
 "data": [
  ["CCCCC/C=C\\C/C=C\\C/C=C\\C/C=C\\CCCC(=O)NCCS(=O)(=O)O [N-arachidonoyl-L-taurine]", "human GPR72 (Homo sapiens)", "active"],
  ["CCCCC/C=C\\C/C=C\\C/C=C\\C/C=C\\CCCC(=O)O [arachidonic acid, 5,8,11,14-all-cis-eicosatetraenoic acid]", "human GPR72 (Homo sapiens)", "active"],
  ["CCCCC/C=C\\C/C=C\\C/C=C\\C/C=C\\CCCC(=O)NCC(=O)O [N-arachidonoyl-glycine]", "human GPR72 (Homo sapiens)", "active"]
]}

====

# EXPERIMENTAL_TARGET: human GPR72 (Homo sapiens)
# ASSAY_INFO: Aequorin-based functional assay: intracellular calcium release (luminescence) in CHO-K1 cells stably expressing human GPR72, mitochondrial apoaequorin and Galpha16
# Format: cell-based
# Parameters: expressed in transfected cells
# REPORTED_CONDITIONS: Figure 8, SAR of arachidonic acid on human GPR72 activation; CHO-K1 cells, aequorin; read-out: GPR72 EC50
MEASUREMENT_NAME: log10(EC50) (log10 of the value in µM)
// units: µM (pre-log); metric: EC50; scale: log10

Quick one: log10(EC50) for CC/C=C\C/C=C\C/C=C\C/C=C\CCCCCCC(=O)O [Eicosa-8Z,11Z,14Z,17Z-tetraenoic acid] ?
0.78

Quick one: log10(EC50) for CCCCC/C=C\C/C=C\C/C=C\C/C=C\CCCC(=O)N[C@@H](CO)C(=O)O [N-arachidonoyl-L-serine] ?
0.48

Quick one: log10(EC50) for CC/C=C\C/C=C\C/C=C\C/C=C\C/C=C\CCCC(=O)O [Eicosa-5Z,8Z,11Z,14Z,17Z-pentaenoic acid] ?
0.52

====

# EXPERIMENTAL_TARGET: UniProt Q9NYM4
# ASSAY_INFO: Aequorin-based functional assay: intracellular calcium release (luminescence) in CHO-K1 cells stably expressing human GPR72, mitochondrial apoaequorin and Galpha16
# Assay type: cell-based
# Set-up: expressed in transfected cells
# REPORTED_CONDITIONS: Figure 8, SAR of arachidonic acid on human GPR72 activation; CHO-K1 cells, aequorin; read-out: GPR72 EC50
MEASUREMENT_NAME: EC50 (µM)
Give the value in µM but do not write µM after it.

{"columns": ["COMPOUND", "EC50 (µM)"],
 "data": [
  ["CCCCC/C=C\\C/C=C\\C/C=C\\C/C=C\\CCCC(=O)NCC(O)CC(=O)O (centres unmarked)", 0.7],
  ["CCCCC/C=C\\C/C=C\\C/C=C\\C/C=C\\CCCC(=O)NCCS(=O)(=O)O", 1.3],
  ["CCCCC/C=C\\C/C=C\\C/C=C\\CCCCC(=O)O [Octadeca-6Z,9Z,12Z-trienoic acid]", 0.8],
  ["CCCCC/C=C\\C/C=C\\C/C=C\\C/C=C\\CCCC(=O)NCCCC(=O)O", 4.3]
]}

// next entry
Quick one: EC50 for CC1=C(/C=C/C(C)=C/C=C/C(C)=C/C(=O)O)C(C)(C)CCC1 [All-trans-retinoic acid] ?
86

Every entry's value here was drawn from patent US7824866B2.
